# assay-summary: Solubility of bumetanide salts formed in situ with various bases (saturated solution, HPLC)
# Type: physicochemical
# condition-set: deionized water with base added (salt formed in situ), thermodynamic from solid, 20 mg bumetanide in 1 mL deionized water + base, 0.22 μm filtrate, read-out: Calculated conc. (measured solubility of bumetanide salt)
Where a name gives a salt, the structure may show the parent alone.
measured-quantity: solubility at 2 min (mg/mL)
Give bare numbers, in mg/mL.

Enquiry: Suppose we examine the molecule CCCCNc1cc(C(=O)O)cc(S(N)(=O)=O)c1Oc1ccccc1 [potassium bumetanide salt] ; what solubility at 2 min value has been reported?
Return: 20.2

* * *

# assay-summary: Serum pharmacokinetics of bumetanide after single intranasal, sublingual or intravenous dose in dogs
# condition-set: both sexes, beagle, dog, in vivo, 0.5-mg IV dose (Second Replicate), individual animals
measured-quantity: concentration at 45 min (ng/mL)
Give bare numbers, in ng/mL.

Enquiry: Suppose we examine the compound CCCCNc1cc(C(=O)O)cc(S(N)(=O)=O)c1Oc1ccccc1 [Bumetanide, bumetanide] ; what concentration at 45 min value has been reported?
Return: 13.9
